Values compiled from ChEMBL document CHEMBL5046266.

- method.notes: MRT in CD rat plasma at 3 mg/kg/day, IV administered measured up to 24 hrs by LC-MS/MS analysis
- Type: ADME, organism-based
quantity.name: MRT (h)
Answer in h, number only, no unit symbol.

So, COc1ccc(NC(=O)c2cccc(-c3nc(NC(P(=O)(O)O)P(=O)(O)O)c4ccsc4n3)c2)cc1F ? Its MRT was 6.21

* * *

- tgt: UniProt:O95749
- Sequence (O95749 whole entry): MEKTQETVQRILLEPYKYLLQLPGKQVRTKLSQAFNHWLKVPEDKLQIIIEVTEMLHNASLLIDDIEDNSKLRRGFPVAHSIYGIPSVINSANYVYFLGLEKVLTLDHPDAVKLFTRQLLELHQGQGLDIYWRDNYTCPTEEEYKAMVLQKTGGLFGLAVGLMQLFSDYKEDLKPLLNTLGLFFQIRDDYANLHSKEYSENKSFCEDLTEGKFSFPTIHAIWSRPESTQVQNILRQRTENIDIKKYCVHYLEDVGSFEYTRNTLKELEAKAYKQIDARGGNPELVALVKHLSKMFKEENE
quantity.name: pIC50
For clarity, pIC50 is expressed as the negative log10 of concentration in mol/L.

CC(C)O[C@H](C(=O)Nc1cccc(-c2nc(NC(P(=O)(O)O)P(=O)(O)O)c3ccsc3n2)c1)c1ccccc1 ... 7.68

# lookup: Cc1ccc(S(=O)(=O)Nc2cccc(-c3nc(NC(P(=O)(O)O)P(=O)(O)O)c4ccsc4n3)c2)cc1F on UniProt:O95749, pIC50 = 7.64

# lookup: O=C(Nc1cccc(-c2nc(NC(P(=O)(O)O)P(=O)(O)O)c3ccsc3n2)c1)c1ccc(C(F)(F)F)cn1 on UniProt:O95749, pIC50 = 7.28

# lookup: CC(C)O[C@@H](C(=O)Nc1cccc(-c2nc(NC(P(=O)(O)O)P(=O)(O)O)c3ccsc3n2)c1)c1ccccc1 on UniProt:O95749, pIC50 = 7.64

# lookup: O=C(Nc1ccc(F)cc1)Nc1cccc(-c2nc(NC(P(=O)(O)O)P(=O)(O)O)c3ccsc3n2)c1 on UniProt:O95749, pIC50 = 7.39

* * *

Overview of recorded IC50 for various molecules
Sequence of the target: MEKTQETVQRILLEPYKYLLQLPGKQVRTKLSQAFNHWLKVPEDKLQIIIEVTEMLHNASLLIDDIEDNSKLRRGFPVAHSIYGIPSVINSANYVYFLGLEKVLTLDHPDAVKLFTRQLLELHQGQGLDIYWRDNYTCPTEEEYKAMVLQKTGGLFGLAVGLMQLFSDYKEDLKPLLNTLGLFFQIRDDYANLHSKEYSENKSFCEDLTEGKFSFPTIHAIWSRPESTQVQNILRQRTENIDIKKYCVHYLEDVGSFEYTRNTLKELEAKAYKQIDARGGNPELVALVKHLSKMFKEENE

Known results for molecules:
Cc1ccc(NC(=O)c2cccc(-c3nc(NC(P(=O)(O)O)P(=O)(O)O)c4ccsc4n3)c2)cc1F ... 31 nM
O=C(Cc1ccccc1)Nc1cccc(-c2nc(NC(P(=O)(O)O)P(=O)(O)O)c3ccsc3n2)c1 ... 23 nM

# evaluate next
So, CO[C@@H](C(=O)Nc1cccc(-c2nc(NC(P(=O)(O)O)P(=O)(O)O)c3ccsc3n2)c1)c1ccccc1 ? Its IC50 was 39 nM
